This collection of values is drawn from patent US11278525B1.

Task for the reader: assign each of the following compounds its reported % activity Max. conc. 100 uM.
target: UniProtKB Q8N6T7; assay: SIRT6 enzymatic activity assay with fluorophore (AMC)-labeled Lysin-myristoylated histone H3 peptide (de-myristoylation, trypsin release); format: biochemical; parameters: six-histidine tag; made in house; host or cells: Escherichia coli BL21; settings: compound 100 uM; percentage of signal increase relative to control wells; Tables 1-2
Sequence (Q8N6T7 whole entry): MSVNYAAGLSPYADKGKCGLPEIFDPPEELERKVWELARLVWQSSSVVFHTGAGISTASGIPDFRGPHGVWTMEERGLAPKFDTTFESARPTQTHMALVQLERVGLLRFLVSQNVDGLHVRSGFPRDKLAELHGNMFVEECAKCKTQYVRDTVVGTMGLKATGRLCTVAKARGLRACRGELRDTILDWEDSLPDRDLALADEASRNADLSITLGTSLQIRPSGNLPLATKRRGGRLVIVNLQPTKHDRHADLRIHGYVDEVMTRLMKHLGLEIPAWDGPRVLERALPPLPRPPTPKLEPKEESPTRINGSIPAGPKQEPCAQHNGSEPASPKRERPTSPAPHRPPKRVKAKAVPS
Answer format: numeric, % implied, no suffix.

*Q* Which % activity Max. conc. 100 uM is reported for this compound? COc1ccc(-c2csc3c(NN)ncnc23)cc1 [C201-1744]
*A* 22

*Q* Which % activity Max. conc. 100 uM is reported for this compound? CCOC(=O)C1CCCN(S(=O)(=O)c2ccc(-c3ccc(N4CCOCC4)nn3)s2)C1 (stereo not shown) [K906-5001]
*A* 52

*Q* Which % activity Max. conc. 100 uM is reported for this compound? C=C(C)C1Cc2cc(C(F)(F)F)ccc2N2CCCCC12 (stereo not shown) [V004-5575]
*A* 175

*Q* Which % activity Max. conc. 100 uM is reported for this compound? N#Cc1cccc(-c2cn3c(n2)N(C(=O)c2ccncc2)CCC3)c1 [P950-0537]
*A* 45

*Q* Which % activity Max. conc. 100 uM is reported for this compound? O=C(Nc1ccc2nnc(C3CCC3)n2c1)C1CC1 [M723-1459]
*A* 142

*Q* Which % activity Max. conc. 100 uM is reported for this compound? COc1ccc(-c2nn3c(C)nnc3s2)cc1N [8018-6508]
*A* 18

*Q* Which % activity Max. conc. 100 uM is reported for this compound? CCC(=O)Nc1ccc(-c2cc(C(=O)NCCCN3CCCCC3C)c3ccccc3n2)cc1 (stereo not shown) [L036-0163]
*A* 110

*Q* Which % activity Max. conc. 100 uM is reported for this compound? O=c1[nH]c2ccc(Cl)cc2c(-c2ccccc2)c1Nc1ccc(Oc2ccccc2)cc1 [8013-3307]
*A* 86

*Q* Which % activity Max. conc. 100 uM is reported for this compound? Cc1nc(-c2cccc(F)c2)c(N)c(N(C)C2CCN(C)CC2)n1 [V030-4128]
*A* 210

*Q* Which % activity Max. conc. 100 uM is reported for this compound? CC[C@H]1O[C@@H](Cc2ccc3c(c2C)CC(=O)C(C)=C3C)[C@H](C)[C@@H](O)[C@H]1C [D715-0292]
*A* 56

*Q* Which % activity Max. conc. 100 uM is reported for this compound? CCc1nnc(NC(=O)CSc2nc(N)nc(SC)c2C#N)s1 [8001-8196]
*A* 25

*Q* Which % activity Max. conc. 100 uM is reported for this compound? O=C(c1ccc(-c2ccc(N3CCCCC3)nc2)cc1)N1CCCC1 [M715-0156]
*A* 75

*Q* Which % activity Max. conc. 100 uM is reported for this compound? CCOCCCNc1nc2ccccc2nc1S(=O)(=O)Cc1ccc(Cl)cc1 [L103-0696]
*A* 159

*Q* Which % activity Max. conc. 100 uM is reported for this compound? C=C(Nc1cc(C)cc(C)c1)Nc1nnc(SCC2=CC(=C)N3C=C(C)C=CC3=N2)s1 [G755-0539]
*A* 87

*Q* Which % activity Max. conc. 100 uM is reported for this compound? CCC(=O)Nc1ccc(-c2cc(C(=O)NCCCN3CCCC(C)C3)c3ccccc3n2)cc1 (stereo not shown) [L036-0174]
*A* 87

*Q* Which % activity Max. conc. 100 uM is reported for this compound? C=C1Cc2c(cccc2CC)C=C1c1csc(NC(=O)CCC(=O)NCCCN2CCC(C)CC2)n1 [K232-1782]
*A* 35

*Q* Which % activity Max. conc. 100 uM is reported for this compound? CC(C)Cn1c(=O)c(-c2ccc(C(=O)N3CCN(c4ccccc4)CC3)cc2)nc2ccccc21 [M049-1557]
*A* 56

*Q* Which % activity Max. conc. 100 uM is reported for this compound? Cc1cc(NC(=O)CSc2nnc(-c3sc4ncccc4c3N)n2C)ccc1Cl [D549-0050]
*A* 47

*Q* Which % activity Max. conc. 100 uM is reported for this compound? C=C1Nc2nc(OC(C)=O)c(C)c(C)c2S1 [8018-4551]
*A* 197
